Target: L-selectin (LS-Rg) (Homo sapiens)
Sequence: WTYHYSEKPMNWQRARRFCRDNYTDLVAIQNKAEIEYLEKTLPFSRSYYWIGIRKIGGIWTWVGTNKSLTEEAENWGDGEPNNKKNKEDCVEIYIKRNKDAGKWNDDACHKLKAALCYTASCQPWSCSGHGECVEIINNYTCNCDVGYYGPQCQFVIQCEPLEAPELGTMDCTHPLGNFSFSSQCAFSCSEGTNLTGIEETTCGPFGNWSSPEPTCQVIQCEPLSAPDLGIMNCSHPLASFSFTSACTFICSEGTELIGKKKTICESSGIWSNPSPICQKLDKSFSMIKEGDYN
Test: filter
Settings: 2'-NH2 all C and U; 4 C, HSMC; biphasic, fraction 0.75, low affinity Kd 254 nM; 7.8 nM at room temp
measured_metric: Kd

What does the record list as Kd for GGGAGGACGAUGCGGUCCAGAGCGUGAAGAUCAACGUCCCGGNGUCGAAGACAGACGACUCGCCCGA [F14.70] ?
2 nM

###

molecular target: CD22beta (CD22beta-Rg); experiment: filter; conditions: <1% binding at 700 nM; room temp
measured_metric: Kd

Given the entry CTACCTACGATCTGACTAGCCGAGGTAGTCGTTATAGGGTRCRCACGACACAAARCRGTRGCTTACTCTCATGTAGTTCC [127] , report its measured Kd.
> 100 µM

###

Target: P-selectin (PS-Rg) (Homo sapiens) (UniProt P16109)
Sequence: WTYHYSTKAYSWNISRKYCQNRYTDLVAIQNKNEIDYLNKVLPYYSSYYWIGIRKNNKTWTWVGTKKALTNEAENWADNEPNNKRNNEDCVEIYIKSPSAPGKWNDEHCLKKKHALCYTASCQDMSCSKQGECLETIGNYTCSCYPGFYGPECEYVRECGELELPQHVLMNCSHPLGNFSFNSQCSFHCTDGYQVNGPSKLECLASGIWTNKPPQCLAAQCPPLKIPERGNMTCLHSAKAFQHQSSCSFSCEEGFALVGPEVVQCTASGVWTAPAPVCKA
Experiment: filter
Conditions: room temp, Ca/Mg buffer
measured_metric: pKd
# reply with the number alone; pKd is -log10 of concentration in mol/L

Please give the measured pKd for this sequence: CTACCTACGATCTGACTAGCCGAGGTAGTCGTTATAGGGTRCRCACGACACAAARCRGTRGCTTACTCTCATGTAGTTCC [127]
6.11

###

target: CD22beta (CD22beta-Rg) (UniProt P20273); assay: filter; details: 2'-NH2 on all C and U; <5% binding at highest protein; 4 C, HSMC
Sequence (P20273 20-687): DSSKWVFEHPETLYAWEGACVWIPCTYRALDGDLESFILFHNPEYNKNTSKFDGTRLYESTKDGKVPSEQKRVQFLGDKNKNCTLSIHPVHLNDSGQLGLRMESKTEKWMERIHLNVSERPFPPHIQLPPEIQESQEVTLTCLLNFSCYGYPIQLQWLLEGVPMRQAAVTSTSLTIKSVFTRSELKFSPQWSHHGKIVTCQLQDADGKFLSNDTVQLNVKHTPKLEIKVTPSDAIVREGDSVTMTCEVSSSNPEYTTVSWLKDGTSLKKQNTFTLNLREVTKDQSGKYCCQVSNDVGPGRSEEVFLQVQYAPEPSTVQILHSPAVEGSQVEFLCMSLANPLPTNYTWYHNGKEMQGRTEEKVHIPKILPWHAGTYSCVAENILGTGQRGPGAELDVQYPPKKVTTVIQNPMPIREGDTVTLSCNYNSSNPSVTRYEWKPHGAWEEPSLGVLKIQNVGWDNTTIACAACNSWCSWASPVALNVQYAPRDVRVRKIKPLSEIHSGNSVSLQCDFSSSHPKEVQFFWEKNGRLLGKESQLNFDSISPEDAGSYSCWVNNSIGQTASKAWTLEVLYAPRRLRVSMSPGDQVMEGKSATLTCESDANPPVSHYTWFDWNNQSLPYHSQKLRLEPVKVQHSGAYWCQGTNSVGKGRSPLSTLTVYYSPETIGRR
pKd: −log10 of the molar value.
Overview of reported pKd across a group of sequences:

| macromolecule_sequence | assayed_system | pKd |
| --- | --- | --- |
| GGGAGGACGAUGCGGUCCAGAGCGUGAAGAUCAACGUCCCGGNGUCGAAGACAGACGACUCGCCCGA [F14.70] | CD22beta (CD22beta-Rg) (UniProt P20273) | < 4.70 |

// next item, pKd requested
Requested read-out pKd, target or system CD22beta (CD22beta-Rg) (UniProt P20273), entry GGGAGGACGAUGCGGAAGUGAAGCUAAAGCGGAGGGCCAUUCAGUUUCNCACCACAGACGACUCGCCCGA [F14.2]
< 4.70

###

Target: L-selectin (LS-Rg) (Homo sapiens) (UniProt P14151)
Sequence: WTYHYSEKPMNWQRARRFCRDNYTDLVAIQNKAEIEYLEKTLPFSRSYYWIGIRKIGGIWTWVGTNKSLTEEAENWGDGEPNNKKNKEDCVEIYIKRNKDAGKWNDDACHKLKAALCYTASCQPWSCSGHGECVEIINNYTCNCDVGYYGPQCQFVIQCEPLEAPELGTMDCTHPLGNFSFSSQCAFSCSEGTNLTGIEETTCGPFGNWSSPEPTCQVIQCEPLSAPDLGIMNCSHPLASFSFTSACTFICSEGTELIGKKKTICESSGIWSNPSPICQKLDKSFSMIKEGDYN
Experiment: filter
Conditions: room temp; 890 pM at 37 C
measured_metric: Kd (nM)
The response must be a number in nM with no trailing unit.

Find Kd (L-selectin (LS-Rg) (Homo sapiens) (UniProt P14151)) for the entry CTACCTACGATCTGACTAGCCGAGGTAGTCGTTATAGGGTRCRCACGACACAAARCRGTRGCTTACTCTCATGTAGTTCC [127]
1
